Organism: Rattus norvegicus
Experiment: Open TG-GATES - Regimen: Single
Type: toxicity, organism-based, Sprague-Dawley
Parameters: regimen Single, gender Male, age 6 weeks
Conditions: in vivo, po, 100 mg/kg, 9 h, tissue Plasma, route gavage, dose level Low
Catalogue of molecules with associated RALB
Write the quantity with the unit trailing the number.

* Cc1nnc2n1-c1ccc(Cl)cc1C(c1ccccc1Cl)=NC2 [TRIAZOLAM] | 2.4 g/dL
* CNC(=C[N+](=O)[O-])NCCSCc1ccc(CN(C)C)o1 [RANITIDINE] | 3.3 g/dL

Next, consider the following molecule.
Ask: I am curious: what RALB value has been reported for CN/C(=N/CCSCc1nc[nH]c1C)NC#N [CIMETIDINE] ?
Result: 3.4 g/dL

---

Organism: Rattus norvegicus
Test: Open TG-GATES - Regimen: Single
Format: toxicity, organism-based, Sprague-Dawley
Set-up: regimen Single, gender Male, age 6 weeks
Settings: in vivo, po, 1000 mg/kg, 9 h, tissue Plasma, route gavage, dose level High
// TBIL lookup, one value per entry
I only need the number, in mg/dL, no unit after it.

Recorded TBIL, per entry:
* CN/C(=N/CCSCc1nc[nH]c1C)NC#N [CIMETIDINE] | 0.1
* O=C(OC[C@H]1O[C@@H](OC(=O)c2cc(O)c(O)c(OC(=O)c3cc(O)c(O)c(O)c3)c2)[C@H](OC(=O)c2cc(O)c(O)c(OC(=O)c3cc(O)c(O)c(O)c3)c2)[C@@H](OC(=O)c2cc(O)c(O)c(OC(=O)c3cc(O)c(O)c(O)c3)c2)[C@@H]1OC(=O)c1cc(O)c(O)c(OC(=O)c2cc(O)c(O)c(O)c2)c1)c1cc(O)c(O)c(OC(=O)c2cc(O)c(O)c(O)c2)c1 [TANNIC ACID] | 0.9
* Cc1nnc2n1-c1ccc(Cl)cc1C(c1ccccc1Cl)=NC2 [TRIAZOLAM] | 0.064
* CNC(=C[N+](=O)[O-])NCCSCc1ccc(CN(C)C)o1 [RANITIDINE] | 0.1

Kindly review the next compound as well.
Ask: What value of TBIL has been recorded for this entry: COC(=O)C1=C(C)NC(C)=C(C(=O)OC)C1c1ccccc1[N+](=O)[O-] [NIFEDIPINE]
Result: 0.052

---

Species: Rattus norvegicus
Assay: Open TG-GATES - Regimen: Single
Type: toxicity, organism-based, Sprague-Dawley
Parameters: regimen Single, gender Male, age 6 weeks
Settings: in vivo, po, 1000 mg/kg, 9 h, tissue Plasma, route gavage, dose level High
ASSAY ENDPOINT: Ca (mg/dL)
Value expressed in mg/dL; do not type the unit.

Field: example entries. Status: answers known.
* O=C(OC[C@H]1O[C@@H](OC(=O)c2cc(O)c(O)c(OC(=O)c3cc(O)c(O)c(O)c3)c2)[C@H](OC(=O)c2cc(O)c(O)c(OC(=O)c3cc(O)c(O)c(O)c3)c2)[C@@H](OC(=O)c2cc(O)c(O)c(OC(=O)c3cc(O)c(O)c(O)c3)c2)[C@@H]1OC(=O)c1cc(O)c(O)c(OC(=O)c2cc(O)c(O)c(O)c2)c1)c1cc(O)c(O)c(OC(=O)c2cc(O)c(O)c(O)c2)c1 | 10.2
* CN/C(=N/CCSCc1nc[nH]c1C)NC#N | 10.3
* COC(=O)C1=C(C)NC(C)=C(C(=O)OC)C1c1ccccc1[N+](=O)[O-] | 10.8
* Cc1nnc2n1-c1ccc(Cl)cc1C(c1ccccc1Cl)=NC2 | 10.9

Ask: Report Ca for CNC(=C[N+](=O)[O-])NCCSCc1ccc(CN(C)C)o1 please.
Result: 10.6

---

Organism: Rattus norvegicus
Assay: Open TG-GATES - Regimen: Single
Assay type: toxicity, organism-based, Sprague-Dawley
Design: regimen Single, gender Male, age 6 weeks
Conditions: in vivo, po, 1000 mg/kg, 6 h, tissue Blood, route gavage, dose level High
ASSAY ENDPOINT: Hb (g/dL)
Quick reminder: number only, in g/dL, skip the unit.

These solved cases illustrate the format of a correct answer.
• COC(=O)C1=C(C)NC(C)=C(C(=O)OC)C1c1ccccc1[N+](=O)[O-] = 13
• CNC(=C[N+](=O)[O-])NCCSCc1ccc(CN(C)C)o1 = 13.4
• Cc1nnc2n1-c1ccc(Cl)cc1C(c1ccccc1Cl)=NC2 = 13.9
• O=C(OC[C@H]1O[C@@H](OC(=O)c2cc(O)c(O)c(OC(=O)c3cc(O)c(O)c(O)c3)c2)[C@H](OC(=O)c2cc(O)c(O)c(OC(=O)c3cc(O)c(O)c(O)c3)c2)[C@@H](OC(=O)c2cc(O)c(O)c(OC(=O)c3cc(O)c(O)c(O)c3)c2)[C@@H]1OC(=O)c1cc(O)c(O)c(OC(=O)c2cc(O)c(O)c(O)c2)c1)c1cc(O)c(O)c(OC(=O)c2cc(O)c(O)c(O)c2)c1 = 13.5

The record that follows has no Hb shown yet.
Ask: // Hb lookup, key: CN/C(=N/CCSCc1nc[nH]c1C)NC#N
Result: 13.2

---

Catalogue of K values
Species on record: Rattus norvegicus
Experiment: Open TG-GATES - Regimen: Daily Repeat
Format: toxicity, organism-based, Sprague-Dawley
Set-up: regimen Daily Repeat, gender Male, age 6 weeks
Details: in vivo, po, 300 mg/kg, […], tissue Plasma, route gavage, dose level Middle, time 14 day
Put down the number, then write its unit next to it.

* CCOc1ccc(NC(C)=O)cc1 [PHENACETIN] | 4.3 meq/L

Ask: May I ask what K has been recorded for CN/C(=N/CCSCc1nc[nH]c1C)NC#N [CIMETIDINE] ?
Result: 3.9 meq/L

Ask: Can you share its K? I mean this compound: COC(=O)C1=C(C)NC(C)=C(C(=O)OC)C1c1ccccc1[N+](=O)[O-] [NIFEDIPINE]
Result: 4.2 meq/L

Ask: Find the recorded K belonging to Cc1nnc2n1-c1ccc(Cl)cc1C(c1ccccc1Cl)=NC2 [TRIAZOLAM] and report it.
Result: 4.1 meq/L

Ask: Report K for O=C(OC[C@H]1O[C@@H](OC(=O)c2cc(O)c(O)c(OC(=O)c3cc(O)c(O)c(O)c3)c2)[C@H](OC(=O)c2cc(O)c(O)c(OC(=O)c3cc(O)c(O)c(O)c3)c2)[C@@H](OC(=O)c2cc(O)c(O)c(OC(=O)c3cc(O)c(O)c(O)c3)c2)[C@@H]1OC(=O)c1cc(O)c(O)c(OC(=O)c2cc(O)c(O)c(O)c2)c1)c1cc(O)c(O)c(OC(=O)c2cc(O)c(O)c(O)c2)c1 [TANNIC ACID] please.
Result: 4.4 meq/L

Ask: Which K value belongs to CNC(=C[N+](=O)[O-])NCCSCc1ccc(CN(C)C)o1 [RANITIDINE] ?
Result: 4 meq/L

---

Each entry below carries its recorded DBIL.
Species on record: Rattus norvegicus
Assay: Open TG-GATES - Regimen: Daily Repeat
Type: toxicity, organism-based, Sprague-Dawley
Set-up: regimen Daily Repeat, gender Male, age 6 weeks
Conditions: in vivo, po, 0 mg/kg, […], tissue Plasma, route gavage, dose level Control, time 7 day
Please make sure the unit comes right after the number.

Example compounds with recorded DBIL:
- CN1C(=O)CCS(=O)(=O)C1c1ccc(Cl)cc1 (configuration not stated) [CHLORMEZANONE]: 0.016 mg/dL
- Nc1c2c(nc3ccccc13)CCCC2 [TACRINE]: 0 mg/dL
- CNC(=C[N+](=O)[O-])NCCSCc1ccc(CN(C)C)o1 [RANITIDINE]: 0.096 mg/dL
- O=C(OC[C@H]1O[C@@H](OC(=O)c2cc(O)c(O)c(OC(=O)c3cc(O)c(O)c(O)c3)c2)[C@H](OC(=O)c2cc(O)c(O)c(OC(=O)c3cc(O)c(O)c(O)c3)c2)[C@@H](OC(=O)c2cc(O)c(O)c(OC(=O)c3cc(O)c(O)c(O)c3)c2)[C@@H]1OC(=O)c1cc(O)c(O)c(OC(=O)c2cc(O)c(O)c(O)c2)c1)c1cc(O)c(O)c(OC(=O)c2cc(O)c(O)c(O)c2)c1 [TANNIC ACID]: 0.006 mg/dL
- CCOc1ccc(NC(C)=O)cc1 [PHENACETIN]: 0.004 mg/dL
- Cc1nnc2n1-c1ccc(Cl)cc1C(c1ccccc1Cl)=NC2 [TRIAZOLAM]: 0.01 mg/dL

Continue with the next compound.
Ask: Can you look up the measured DBIL of CCCc1cc(=O)[nH]c(=S)[nH]1 [PROPYLTHIOURACIL] for me?
Result: 0.016 mg/dL

---

Mono values by entry
Organism: Rattus norvegicus
Assay: Open TG-GATES - Regimen: Daily Repeat
Format: toxicity, organism-based, Sprague-Dawley
Design: regimen Daily Repeat, gender Male, age 6 weeks
Settings: in vivo, po, 100 mg/kg, […], tissue Blood, route gavage, dose level Low, time 7 day
Number only, in %; omit the unit.

Solved entries:
* Cc1nnc2n1-c1ccc(Cl)cc1C(c1ccccc1Cl)=NC2 [TRIAZOLAM] | 2.2
* CCOc1ccc(NC(C)=O)cc1 [PHENACETIN] | 2
* COC(=O)C1=C(C)NC(C)=C(C(=O)OC)C1c1ccccc1[N+](=O)[O-] [NIFEDIPINE] | 3

Ask: Recorded Mono for O=C(OC[C@H]1O[C@@H](OC(=O)c2cc(O)c(O)c(OC(=O)c3cc(O)c(O)c(O)c3)c2)[C@H](OC(=O)c2cc(O)c(O)c(OC(=O)c3cc(O)c(O)c(O)c3)c2)[C@@H](OC(=O)c2cc(O)c(O)c(OC(=O)c3cc(O)c(O)c(O)c3)c2)[C@@H]1OC(=O)c1cc(O)c(O)c(OC(=O)c2cc(O)c(O)c(O)c2)c1)c1cc(O)c(O)c(OC(=O)c2cc(O)c(O)c(O)c2)c1 [TANNIC ACID] , please?
Result: 7.4

Ask: Looking for the measured Mono of CNC(=C[N+](=O)[O-])NCCSCc1ccc(CN(C)C)o1 [RANITIDINE] , can you help?
Result: 2.6

Ask: Suppose we examine the compound CN/C(=N/CCSCc1nc[nH]c1C)NC#N [CIMETIDINE] ; what Mono value has been reported?
Result: 2
